system: Escherichia coli (ATCC 13762); test: Microbial susceptibility test (growth inhibition); assay type: cell-based; settings: ATCC13762, E. coli, 72 h of incubation, 95% confidence range in brackets, read-out: IC50 bacterial growth inhibition
measured_parameter: pIC50
Quick note: pIC50 values are minus log10 of concentrations in mol/L.

Write down the reported pIC50 of C=C(C)[C@@H]1CCC(C)=C[C@H]1c1c(O)cc(CCCCC)cc1O [CBD, Cannabidiol] , test system: Escherichia coli (ATCC 13762).
4.54

----------
assay: DPPH assay (radical scavenging); settings: 50% reduction of initial DPPH radical absorbance, 30 min; 95% confidence limits in brackets
measured_parameter: EC50
Remember to put the unit after the number in your answer.

Which EC50 value belongs to Cc1c(C)c2c(c(C)c1O)CCC(C)(C(=O)O)O2 (stereo not shown) [TROLOX, reference compound] ?
327 µM
